The reported measurements were obtained from patent US20250195536A1.

# EXPERIMENTAL_SYSTEM: KRAS G12D (Homo sapiens, UniProt P01116, G12D)
# Sequence (P01116 1-188 isoform P01116-2 G12D): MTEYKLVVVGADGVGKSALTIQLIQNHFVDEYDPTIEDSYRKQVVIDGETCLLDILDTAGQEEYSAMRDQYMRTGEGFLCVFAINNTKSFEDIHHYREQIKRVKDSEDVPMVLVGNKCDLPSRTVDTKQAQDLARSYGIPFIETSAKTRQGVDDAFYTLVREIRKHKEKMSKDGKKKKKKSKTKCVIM
# ASSAY_OVERVIEW: GDP-GTP exchange assay (KRAS G12D);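 note: one dagger IC50 up to 100 nM and two daggers above 100 nM up to 1 μM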
# Type: biochemical
# MEASUREMENT_CONDITIONS: bodipy-GDP/GppNHp exchange with SOS1; 4 h pre-incubation, 2 h reaction
ENDPOINT_LABEL: G12D_exchange (KRAS_G12D exchange assay IC50)

{"COMPOUND": "Cc1nc2c(F)c(-c3cccc(Cl)c3Cl)c(CCC#N)cc2c2c1cc([C@H]1[C@H]3C[C@H](CN(c4nc(C(F)(F)F)cs4)C3)N1C(=O)C1CC1)n2[C@H]1[C@H]2CN[C@@H]1C2 (atropisomer, axis not shown; (Ra))", "MEASUREMENT": "†"}
{"COMPOUND": "Cc1nc2c(F)c(-c3cccc(Cl)c3Cl)c(CCC#N)cc2c2c1cc([C@H]1[C@H]3C[C@H](CN(C(=O)NCC(F)(F)F)C3)N1C(=O)C1CC1)n2[C@H]1[C@H]2CN[C@@H]1C2 (atropisomer, axis not shown; (Ra))", "MEASUREMENT": "†"}

* * *

# EXPERIMENTAL_SYSTEM: KRAS G12D (Homo sapiens, UniProt P01116, G12D)
# ASSAY_OVERVIEW: GDP-GTP exchange assay (KRAS G12D);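 note: one dagger IC50 up to 100 nM and two daggers above 100 nM up to 1 μM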
# Format: biochemical
# MEASUREMENT_CONDITIONS: bodipy-GDP/GppNHp exchange with SOS1; 4 h pre-incubation, 2 h reaction
ENDPOINT_LABEL: G12D_exchange (KRAS_G12D exchange assay IC50)

{"COMPOUND": "Cc1nc2c(F)c(-c3cccc(Cl)c3Cl)c(CCC#N)cc2c2c1cc([C@H]1[C@H]3C[C@H](CN(c4cc(C(F)(F)F)cc(C(F)(F)F)c4)C3)N1C(=O)C1CC1)n2[C@H]1[C@H]2CN[C@@H]1C2 (atropisomer, axis not shown; (Ra)) [Example 18]", "MEASUREMENT": "††"}
{"COMPOUND": "Cc1nc2c(F)c(-c3cccc(Cl)c3Cl)c(CCC#N)cc2c2c1cc([C@H]1[C@H]3C[C@H](CN(c4ncc(C(F)(F)F)cn4)C3)N1C(=O)C1CC1)n2[C@H]1[C@H]2CN[C@@H]1C2 (atropisomer, axis not shown; (Ra)) [Example 41]", "MEASUREMENT": "†"}
{"COMPOUND": "Cc1nc2c(F)c(-c3cccc(Cl)c3Cl)c(CCC#N)cc2c2c1cc([C@H]1[C@H]3C[C@H](CN(c4ccnc(C(F)(F)F)c4)C3)N1C(=O)C1CC1)n2[C@H]1[C@H]2CN[C@@H]1C2 (atropisomer, axis not shown; (Ra)) [Example 38]", "MEASUREMENT": "†"}
{"COMPOUND": "Cc1ccc(N2C[C@@H]3C[C@H](C2)N(C(=O)C2CC2)[C@H]3c2cc3c(C)nc4c(F)c(-c5cccc(Cl)c5Cl)c(CCC#N)cc4c3n2[C@H]2[C@H]3CN[C@@H]2C3)cn1 (atropisomer, axis not shown; (Ra)) [Example 14]", "MEASUREMENT": "†"}

* * *

# ASSAY_OVERVIEW: Caco2 assay (permeability, Papp A-B)
# Assay type: in vitro ADME
# MEASUREMENT_CONDITIONS: human, Caco-2, absorptive direction (A-B), 50 μM test compound, 4% BSA in receiver
ENDPOINT_LABEL: Papp A→B at 120 min, 50 μM

{"COMPOUND": "Cc1nc2c(F)c(-c3cccc(Cl)c3Cl)c(CCC#N)cc2c2c1cc([C@H]1[C@H]3C[C@H](CN(c4ccc(C(F)(F)F)cn4)C3)N1C(=O)C1CC1)n2[C@H]1[C@H]2CN[C@@H]1C2 [Example 30]", "MEASUREMENT": "≤ 0.5 ×10⁻⁶ cm/s"}

# input Look up Papp A→B at 120 min, 50 μM: Cc1nc2c(F)c(-c3cccc(Cl)c3Cl)c(CCC#N)cc2c2c1cc([C@H]1[C@H]3C[C@H](CN(c4cccc(C(F)(F)F)c4)C3)N1C(=O)C1CC1)n2[C@H]1[C@H]2CN[C@@H]1C2 (atropisomer, axis not shown; (Ra)) [Example 10]
# output ≤ 0.5 ×10⁻⁶ cm/s

* * *

# EXPERIMENTAL_SYSTEM: KRAS G12V (Homo sapiens, UniProt P01116, G12V)
# Sequence (P01116 1-188 isoform P01116-2 G12V): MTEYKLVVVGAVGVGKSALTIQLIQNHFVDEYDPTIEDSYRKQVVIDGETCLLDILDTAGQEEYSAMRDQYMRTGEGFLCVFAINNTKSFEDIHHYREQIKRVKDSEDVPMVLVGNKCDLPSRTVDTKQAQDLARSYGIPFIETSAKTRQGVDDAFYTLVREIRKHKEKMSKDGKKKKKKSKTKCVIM
# ASSAY_OVERVIEW: GDP-GTP exchange assay (KRAS G12V);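 note: one dagger IC50 up to 100 nM and two daggers above 100 nM up to 1 μM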
# Assay type: biochemical
# MEASUREMENT_CONDITIONS: bodipy-GDP/GppNHp exchange with SOS1; 3 h incubation after GppNHp-SOS1
ENDPOINT_LABEL: G12V_exchange (KRAS_G12V exchange assay IC50)

Known results for compounds:
{"COMPOUND": "Cc1nc2c(F)c(-c3cccc(Cl)c3Cl)c(CCC#N)cc2c2c1cc([C@H]1[C@H]3C[C@H](CN(c4nccc(C(F)F)n4)C3)N1C(=O)C1CC1)n2[C@H]1[C@H]2CN[C@@H]1C2 (atropisomer, axis not shown; (Ra))", "MEASUREMENT": "†"}
{"COMPOUND": "Cc1nc2c(F)c(-c3cccc(Cl)c3Cl)c(CCC#N)cc2c2c1cc([C@H]1[C@H]3C[C@H](CN(c4cc(C(F)(F)F)cc(C(F)(F)F)c4)C3)N1C(=O)C1CC1)n2[C@H]1[C@H]2CN[C@@H]1C2 (atropisomer, axis not shown; (Ra))", "MEASUREMENT": "†"}
{"COMPOUND": "Cc1noc(C)c1S(=O)(=O)N1C[C@@H]2C[C@H](C1)N(C(=O)C1CC1)[C@H]2c1cc2c(C)nc3c(F)c(-c4cccc(Cl)c4Cl)c(CCC#N)cc3c2n1[C@H]1[C@H]2CN[C@@H]1C2 (atropisomer, axis not shown; (Ra))", "MEASUREMENT": "†"}
{"COMPOUND": "[2H]C1([2H])[C@@H]2C[C@H](CN1c1ncc(C(C)C)s1)N(C(=O)C1CC1)[C@H]2c1cc2c(C)nc3c(F)c(-c4cccc(Cl)c4Cl)c(CCC#N)cc3c2n1[C@H]1[C@H]2CN[C@@H]1C2 (atropisomer, axis not shown; (Ra))", "MEASUREMENT": "†"}
{"COMPOUND": "Cc1nc2c(F)c(-c3cccc(Cl)c3Cl)c(CCC#N)cc2c2c1cc([C@H]1[C@H]3C[C@H](CN(c4cccc(C(F)F)n4)C3)N1C(=O)C1CC1)n2[C@H]1[C@H]2CN[C@@H]1C2 (atropisomer, axis not shown; (Ra))", "MEASUREMENT": "†"}
{"COMPOUND": "Cc1nc2c(F)c(-c3cccc(Cl)c3Cl)c(CCC#N)cc2c2c1cc([C@H]1[C@H]3C[C@H](CN(c4cnn(C(F)(F)F)c4)C3)N1C(=O)C1CC1)n2[C@H]1[C@H]2CN[C@@H]1C2 (atropisomer, axis not shown; (Ra))", "MEASUREMENT": "†"}
{"COMPOUND": "Cc1cc(N2C[C@@H]3C[C@H](C2)N(C(=O)C2CC2)[C@H]3c2cc3c(C)nc4c(F)c(-c5cccc(Cl)c5Cl)c(CCC#N)cc4c3n2[C@H]2[C@H]3CN[C@@H]2C3)cc(=O)o1 (atropisomer, axis not shown; (Ra))", "MEASUREMENT": "†"}

# context switch: different compound, same G12V_exchange (KRAS_G12V exchange assay IC50)
# input Look up G12V_exchange (KRAS_G12V exchange assay IC50): Cc1nc2c(F)c(-c3cccc(Cl)c3Cl)c(CCC#N)cc2c2c1cc([C@H]1[C@H]3C[C@H](CN(C(=O)C4CC4)C3)N1C(=O)C1CC1)n2[C@H]1[C@H]2CN[C@@H]1C2 (atropisomer, axis not shown; (Ra))
# output †

* * *

# EXPERIMENTAL_SYSTEM: KRAS G12V (Homo sapiens, UniProt P01116, G12V)
# ASSAY_OVERVIEW: GDP-GTP exchange assay (KRAS G12V);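 note: one dagger IC50 up to 100 nM and two daggers above 100 nM up to 1 μM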
# Assay type: biochemical
# MEASUREMENT_CONDITIONS: bodipy-GDP/GppNHp exchange with SOS1; 3 h incubation after GppNHp-SOS1
ENDPOINT_LABEL: G12V_exchange (KRAS_G12V exchange assay IC50)

Known results for molecules:
{"MOLECULE": "Cc1nc2c(F)c(-c3cccc(Cl)c3Cl)c(CCC#N)cc2c2c1cc([C@H]1[C@H]3C[C@H](CN(c4ccn(C)c(=O)c4)C3)N1C(=O)C1CC1)n2[C@H]1[C@H]2CN[C@@H]1C2 (atropisomer, axis not shown; (Ra)) [Example 35]", "MEASUREMENT": "†"}
{"MOLECULE": "Cc1nc2c(F)c(-c3cccc(Cl)c3Cl)c(CCC#N)cc2c2c1cc([C@H]1[C@H]3C[C@H](CN(c4ccn5cc(C(F)(F)F)nc5c4)C3)N1C(=O)C1CC1)n2[C@H]1[C@H]2CN[C@@H]1C2 (atropisomer, axis not shown; (Ra)) [Example 70]", "MEASUREMENT": "†"}
{"MOLECULE": "Cc1nc2c(F)c(-c3cccc(Cl)c3Cl)c(CCC#N)cc2c2c1cc([C@H]1[C@H]3C[C@H](CN(c4ccccc4F)C3)N1C(=O)C1CC1)n2[C@H]1[C@H]2CN[C@@H]1C2 (atropisomer, axis not shown; (Ra)) [Example 2]", "MEASUREMENT": "†"}
{"MOLECULE": "Cc1nc2c(F)c(-c3cccc(Cl)c3Cl)c(CCC#N)cc2c2c1cc([C@H]1[C@H]3C[C@H](CN(c4ncc(C(F)F)s4)C3)N1C(=O)C1CC1)n2[C@H]1[C@H]2CN[C@@H]1C2 (atropisomer, axis not shown; (Ra)) [Example 102]", "MEASUREMENT": "†"}
{"MOLECULE": "Cc1nc2c(F)c(-c3cccc(Cl)c3Cl)c(CCC#N)cc2c2c1cc([C@H]1[C@H]3C[C@H](CN(c4ccc(C(F)(F)F)cc4)C3)N1C(=O)C1CC1)n2[C@H]1[C@H]2CN[C@@H]1C2 (atropisomer, axis not shown; (Ra)) [Example 12]", "MEASUREMENT": "†"}

# input So what G12V_exchange (KRAS_G12V exchange assay IC50) did Cc1nc2c(F)c(-c3cccc(Cl)c3Cl)c(CCC#N)cc2c2c1cc([C@H]1[C@H]3C[C@H](CN(c4ccnc(C#N)c4)C3)N1C(=O)C1CC1)n2[C@H]1[C@H]2CN[C@@H]1C2 (atropisomer, axis not shown; (Ra)) [Example 63] get with KRAS G12V (Homo sapiens, UniProt P01116, G12V)?
# output †

# input Same lookup for Cc1c(N2C[C@@H]3C[C@H](C2)N(C(=O)C2CC2)[C@H]3c2cc3c(C)nc4c(F)c(-c5cccc(Cl)c5Cl)c(CCC#N)cc4c3n2[C@H]2[C@H]3CN[C@@H]2C3)ccnc1F (atropisomer, axis not shown; (Ra)) [Example 76] , please.
# output †

# input Same lookup for Cc1nc2c(F)c(-c3cccc(Cl)c3Cl)c(CCC#N)cc2c2c1cc([C@H]1[C@H]3C[C@H](CN(c4nc(C#N)cs4)C3)N1C(=O)C1CC1)n2[C@H]1[C@H]2CN[C@@H]1C2 (atropisomer, axis not shown; (Ra)) [Example 96] , please.
# output †

# input Same lookup for Cc1cc(N2C[C@@H]3C[C@H](C2)N(C(=O)C2CC2)[C@H]3c2cc3c(C)nc4c(F)c(-c5cccc(Cl)c5Cl)c(CCC#N)cc4c3n2[C@H]2[C@H]3CN[C@@H]2C3)cc(C(F)F)n1 (atropisomer, axis not shown; (Ra)) [Example 84] , please.
# output †

# input Same lookup for Cc1nc2c(F)c(-c3cccc(Cl)c3Cl)c(CCC#N)cc2c2c1cc([C@H]1[C@H]3C[C@H](CN(c4ncc(OC(F)F)cn4)C3)N1C(=O)C1CC1)n2[C@H]1[C@H]2CN[C@@H]1C2 (atropisomer, axis not shown; (Ra)) [Example 45] , please.
# output †

# input Same lookup for Cc1nc2c(F)c(-c3cccc(Cl)c3Cl)c(CCC#N)cc2c2c1cc([C@H]1[C@H]3C[C@H](CN(S(=O)(=O)N4CCOCC4)C3)N1C(=O)C1CC1)n2[C@H]1[C@H]2CN[C@@H]1C2 (atropisomer, axis not shown; (Ra)) [Example 111] , please.
# output †

# input Same lookup for Cc1nc2c(F)c(-c3cccc(Cl)c3Cl)c(CCC#N)cc2c2c1cc([C@H]1[C@H]3C[C@H](CN(c4ccc(OC(F)F)cc4)C3)N1C(=O)C1CC1)n2[C@H]1[C@H]2CN[C@@H]1C2 (atropisomer, axis not shown; (Ra)) [Example 25] , please.
# output †

# input Same lookup for Cc1nc2c(F)c(-c3cccc(Cl)c3Cl)c(CCC#N)cc2c2c1cc([C@H]1[C@H]3C[C@H](CN(c4cccc(OC(F)F)n4)C3)N1C(=O)C1CC1)n2[C@H]1[C@H]2CN[C@@H]1C2 (atropisomer, axis not shown; (Ra)) [Example 86] , please.
# output †

# input Same lookup for COCCOc1cc(N2C[C@@H]3C[C@H](C2)N(C(=O)C2CC2)[C@H]3c2cc3c(C)nc4c(F)c(-c5cccc(Cl)c5Cl)c(CCC#N)cc4c3n2[C@H]2[C@H]3CN[C@@H]2C3)ccn1 (atropisomer, axis not shown; (Ra)) [Example 83] , please.
# output †

# input Same lookup for COc1ccnc(N2C[C@@H]3C[C@H](C2)N(C(=O)C2CC2)[C@H]3c2cc3c(C)nc4c(F)c(-c5cccc(Cl)c5Cl)c(CCC#N)cc4c3n2[C@H]2[C@H]3CN[C@@H]2C3)c1F (atropisomer, axis not shown; (Ra)) [Example 55] , please.
# output †

# input Same lookup for Cc1nc2c(F)c(-c3cccc(Cl)c3Cl)c(CCC#N)cc2c2c1cc([C@H]1[C@H]3C[C@H](CN(c4ncccc4F)C3)N1C(=O)C1CC1)n2[C@H]1[C@H]2CN[C@@H]1C2 (atropisomer, axis not shown; (Ra)) [Example 46] , please.
# output †
